Hello, the source for this data is PubChem BioAssay (NCI), in case you need it.

- Tested on: TK-10 renal
- Method Description: NCI-60 one-dose screen, 48 h
- Experimental Setup: 10 µM unless noted
About 83,000 compounds went through this panel and 20% of them were active in at least one assay; those are over-represented in the sample as a whole. The source made the active and inactive calls. Rule for the calls: active = growth percent below 10; inactive = the rest.
A correct response names exactly one class from active, inactive

Exam item: Recorded test outcome, item `COC1=C(OC)C(=O)c2ccccc2C1=O`
Marked response: inactive

Exam item: Recorded test outcome, item `Cc1nnc(/N=C2\NC(=O)/C(=C/C=C/c3ccccc3)S2)s1`
Marked response: inactive

Exam item: Recorded test outcome, item `CC/C(=N\Nc1nc2ccccc2n1C)c1ccccn1`
Marked response: inactive

Exam item: Recorded test outcome, item `CC(=O)/C(=C/c1ccc(-c2ccccc2)cc1)C(=O)c1ccccc1`
Marked response: inactive

Exam item: Recorded test outcome, item `COC(=O)[C@H](Cc1cn(C)cn1)NC(=O)[C@H](CC(=O)OCc1ccccc1)NC(=O)Nc1cc(C(F)(F)F)cc(C(F)(F)F)c1`
Marked response: active

Exam item: Recorded test outcome, item `CCC(C)(C)c1ccc(OCCCCCCN2CCNCC2)cc1`
Marked response: inactive

Exam item: Recorded test outcome, item CC(=O)C(CO)C(=O)Nc1ccccc1 (centres undefined)
Marked response: inactive

Exam item: Recorded test outcome, item `O=C(Nc1cccc(Cn2c(=O)[nH]c3ccc(Oc4ncccn4)cc3c2=O)c1)c1ccc(Cl)cc1`
Marked response: inactive

Exam item: Recorded test outcome, item `COc1ccc(Nc2c3ccccc3nc3ccccc23)cc1`
Marked response: inactive
